# Test system: HCT-116 colon
# ASSAY DETAILS: NCI tumour cell line growth inhibition, 48 h; in the data active means GI50 below about 0.43 µM; inactive means the rest
Please answer using one outcome listed in active, inactive

## Task Which outcome did this test record for the compound COc1cc2c(=O)n(CCN)c3c4cc5c(cc4ccc3c2cc1OC)OCO5 ?
## Result active

## Task // query: CCOc1cccc(/C=N/NC(=O)C(=O)Nc2cccc(C(F)(F)F)c2)c1O
## Result inactive

## Task Query COc1ccc(Cn2c3c(cc(OS(=O)(=O)C(F)(F)F)c2=O)Cc2ccccc2-3)cc1 next
## Result inactive

## Task Input Cc1cc2c(cc1C)N(C(=O)CCl)CCN2C(=O)CCl
## Result active

## Task Same again, this time with O=C(O)c1ccc2c(c1)CCCC(c1ccc(Cl)cc1Cl)=C2c1ccc(O[C@H]2CCN(CCCF)C2)cc1
## Result inactive

## Task # iterate: O=C1c2cc(Cl)ccc2-c2c1c1ccc([N+](=O)[O-])cc1c(=O)n2CCCBr
## Result inactive

## Task Moving on to C/C=C1\NC(=O)[C@H]2CSSCCC=C[C@H](CC(=O)N[C@H](C(C)C)C(=O)N2)OC(=O)[C@H](C(C)C)NC1=O
## Result active

## Task Same question, Cc1sc2nc3c4ccccc4c(NCCCN(C)C)nn3c(=O)c2c1C this time
## Result inactive

New cases:
## Task Identify the outcome logged in this assay for the compound shown: CC[PH+](CC)CC.O=COC1OC([S-])C(OC=O)C(OC=O)C1OC=O.[Au+] (centres undefined)
## Result inactive

## Task Entry to check: COc1cc(S(=O)(=O)Nc2ccc(C(=O)/C=C/c3ccc(O)cc3)cc2)ccc1F
## Result inactive

## Task Ok, now O=C(O)C1CCCCC1C(=O)O.[NH-]C1CCC1.[NH2-].[Pt+2] (centres undefined)
## Result inactive

## Task Then this compound: Cc1ccc2nc(-c3ccc(N(C)C)c(Br)c3)cn2c1
## Result inactive

## Task What do you get for O=C1NC(=S)S/C1=C(/C=C(\CC(=O)c1ccccc1)c1ccc(Cl)cc1)c1ccccc1 ?
## Result inactive

## Task Follow-up item: Cc1cc2c(cc1Cl)SC1=NN(C)C(N(C)C)N1S2(=O)=O (centres undefined)
## Result inactive
